# test system: Melanocyte-stimulating hormone receptor (Mus musculus)
# Sequence (Q01727 whole entry): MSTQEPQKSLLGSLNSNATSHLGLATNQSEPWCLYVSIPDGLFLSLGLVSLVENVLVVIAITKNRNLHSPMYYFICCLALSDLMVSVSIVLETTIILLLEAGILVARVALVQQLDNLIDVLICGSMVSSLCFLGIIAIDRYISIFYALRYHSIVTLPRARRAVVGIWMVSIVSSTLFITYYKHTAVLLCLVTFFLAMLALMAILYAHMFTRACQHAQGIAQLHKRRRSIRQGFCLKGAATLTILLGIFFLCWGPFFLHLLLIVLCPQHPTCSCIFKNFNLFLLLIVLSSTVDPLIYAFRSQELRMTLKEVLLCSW
# test protocol: Agonist activity at mouse MC1R expressed in HEK293 cells by beta-galactosidase assay
# Assay type: functional, cell-based
metric: EC50

- molecule smiles: "CC(C)C[C@H](NC(=O)[C@H](CCCCN)NC(=O)[C@H](CCCNC(=N)N)NC(=O)[C@H](C)NC(=O)[C@H](Cc1ccc(O)cc1)NC(=O)[C@@H]1CSSC[C@H](NC(=O)[C@H](Cc2ccc(O)cc2)NC(=O)[C@H](C)NC(=O)[C@@H](NC(=O)[C@H](C)NC(=O)[C@H](C)NC(=O)[C@@H]2CCCN2C(=O)[C@@H](N)CC(=O)O)[C@@H](C)O)C(=O)N[C@H](CCCNC(=N)N)C(=O)N[C@@H](Cc2ccccc2)C(=O)N[C@@H](Cc2ccccc2)C(=O)N[C@@H](CC(N)=O)C(=O)N[C@@H](C)C(=O)N[C@@H](Cc2ccccc2)C(=O)N1)C(=O)O"
  metric: "EC50"
  observed: "6.33 µM (agonist)"
